Entries and their interaction score
Target: T1, 4H797-AA
T1 chain: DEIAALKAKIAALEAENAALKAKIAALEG
Test: two-hybrid library CCmax;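 further: natural log of median RNA to DNA barcode read ratio; higher means stronger binding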
Details: mean of both orientations
Measurement Type: interaction score

| Binder | Result Value |
| --- | --- |
| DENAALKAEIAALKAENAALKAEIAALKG [4H1626-AA] | -1.41 |
| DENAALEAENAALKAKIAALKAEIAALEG [4H1257-AA] | -1.57 |
| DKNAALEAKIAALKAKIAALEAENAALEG [4H3427-AA] | -1.46 |
| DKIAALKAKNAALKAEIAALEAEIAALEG [4H3009-AA] | -1.65 |
